src = the supplement of paper PMC10724198

- System: Saccharomyces cerevisiae
- assay_protocol: protein stability index of tFT-peptide fusion (C-terminal peptide) (PSI (0-1 scale)); higher = more stable (slower turnover)
- condition_set: genetic background: das1 deletion; temperature: 30 C
measure_name: protein stability index

[[record]]
residue_string = "SFHKEFFDQYRD [ALT1 C-terminal 12 aa]"
measure_name = "protein stability index"
reading = 0.733

[[record]]
residue_string = "SLIKQVGVKLDR [JHD2 C-terminal 12 aa]"
measure_name = "protein stability index"
reading = 0.671

[[record]]
residue_string = "LHVISKVAGKLF [SBH1 C-terminal 12 aa]"
measure_name = "protein stability index"
reading = 0.703

[[record]]
residue_string = "KDSAQSLDDLLM [SFM1 C-terminal 12 aa]"
measure_name = "protein stability index"
reading = 0.701

[[record]]
residue_string = "SLDDFGVDVDME [PFA4 C-terminal 12 aa]"
measure_name = "protein stability index"
reading = 0.711

[[record]]
residue_string = "IDDKSDQEESLQ [MAF1 C-terminal 12 aa]"
measure_name = "protein stability index"
reading = 0.706

[[record]]
residue_string = "KVRTQSKQPQEE [SAW1 C-terminal 12 aa]"
measure_name = "protein stability index"
reading = 0.682

[[record]]
residue_string = "SHEQKFENVQKE [STF2 C-terminal 12 aa]"
measure_name = "protein stability index"
reading = 0.711

[[record]]
residue_string = "NEQFDHKFDETL [APL4 C-terminal 12 aa]"
measure_name = "protein stability index"
reading = 0.726

[[record]]
residue_string = "QDRSCSWLKLLL [YLR171W C-terminal 12 aa]"
measure_name = "protein stability index"
reading = 0.685

[[record]]
residue_string = "QELISLIDVINQ [RNH203 C-terminal 12 aa]"
measure_name = "protein stability index"
reading = 0.723

[[record]]
residue_string = "MVTNDGFGSTVL [YLR379W-A C-terminal 12 aa]"
measure_name = "protein stability index"
reading = 0.698

[[record]]
residue_string = "FLSNEPTFLGCV [YPL135C-A C-terminal 12 aa]"
measure_name = "protein stability index"
reading = 0.72

[[record]]
residue_string = "VVVTGNLQILEH [UGP1 C-terminal 12 aa]"
measure_name = "protein stability index"
reading = 0.678

[[record]]
residue_string = "TDYTRIIKMQSS [SWD1 C-terminal 12 aa]"
measure_name = "protein stability index"
reading = 0.701

[[record]]
residue_string = "LLCFRPTRGCGP [YCL041C C-terminal 12 aa]"
measure_name = "protein stability index"
reading = 0.709

[[record]]
residue_string = "YLTFYKSPKTFY [YDR183C-A C-terminal 12 aa]"
measure_name = "protein stability index"
reading = 0.71

[[record]]
residue_string = "LNNLSMERSIRL [GIP3 C-terminal 12 aa]"
measure_name = "protein stability index"
reading = 0.715

[[record]]
residue_string = "ALNGDCCLWRWV [SWD3 C-terminal 12 aa]"
measure_name = "protein stability index"
reading = 0.708

[[record]]
residue_string = "QFKQILENYRPT [VPS38 C-terminal 12 aa]"
measure_name = "protein stability index"
reading = 0.664

[[record]]
residue_string = "TQEKLDSLLLMQ [LGE1 C-terminal 12 aa]"
measure_name = "protein stability index"
reading = 0.702

[[record]]
residue_string = "KGVFWDPACVIA [MFA1 C-terminal 12 aa]"
measure_name = "protein stability index"
reading = 0.731

[[record]]
residue_string = "LYFLVKSFLSIV [HMX1 C-terminal 12 aa]"
measure_name = "protein stability index"
reading = 0.668

[[record]]
residue_string = "KIVSGLVRTNSS [YIL060W C-terminal 12 aa]"
measure_name = "protein stability index"
reading = 0.703

[[record]]
residue_string = "SPYDWFRNTETP [DER1 C-terminal 12 aa]"
measure_name = "protein stability index"
reading = 0.726

[[record]]
residue_string = "PAKVGIVKGEEN [MGE1 C-terminal 12 aa]"
measure_name = "protein stability index"
reading = 0.693

[[record]]
residue_string = "EPMESLRSTTKY [PTR2 C-terminal 12 aa]"
measure_name = "protein stability index"
reading = 0.734

[[record]]
residue_string = "IADHLVGRKRVD [PFK2 C-terminal 12 aa]"
measure_name = "protein stability index"
reading = 0.701

[[record]]
residue_string = "VFISTVLLAIVW [YAL065C C-terminal 12 aa]"
measure_name = "protein stability index"
reading = 0.196

[[record]]
residue_string = "RKFSSSTNLAKF [TOS8 C-terminal 12 aa]"
measure_name = "protein stability index"
reading = 0.779

[[record]]
residue_string = "NLELGGLNMDFL [PGD1 C-terminal 12 aa]"
measure_name = "protein stability index"
reading = 0.717

[[record]]
residue_string = "VSIYKPYTEESE [WTM1 C-terminal 12 aa]"
measure_name = "protein stability index"
reading = 0.662

[[record]]
residue_string = "KNHDFKDCADIF [SWH1 C-terminal 12 aa]"
measure_name = "protein stability index"
reading = 0.721

[[record]]
residue_string = "RNRLENISTMVI [YIA6 C-terminal 12 aa]"
measure_name = "protein stability index"
reading = 0.71

[[record]]
residue_string = "SLYTLNYNVKNP [ATG17 C-terminal 12 aa]"
measure_name = "protein stability index"
reading = 0.716

[[record]]
residue_string = "SVLQRRQSTQNS [HAL1 C-terminal 12 aa]"
measure_name = "protein stability index"
reading = 0.719

[[record]]
residue_string = "PLGVQFLDTFRR [DSC2 C-terminal 12 aa]"
measure_name = "protein stability index"
reading = 0.718

[[record]]
residue_string = "KILDEINLDRIK [HEM3 C-terminal 12 aa]"
measure_name = "protein stability index"
reading = 0.689

[[record]]
residue_string = "QSQYSSRFVELD [MCO12 C-terminal 12 aa]"
measure_name = "protein stability index"
reading = 0.691

[[record]]
residue_string = "SVFCRNYPSFLL [YMR086C-A C-terminal 12 aa]"
measure_name = "protein stability index"
reading = 0.697

[[record]]
residue_string = "VPKSLYGVTRTR [GAT3 C-terminal 12 aa]"
measure_name = "protein stability index"
reading = 0.697

[[record]]
residue_string = "HKGAVCVALNDV [LST8 C-terminal 12 aa]"
measure_name = "protein stability index"
reading = 0.688

[[record]]
residue_string = "FCIFNNVVFPML [RRT1 C-terminal 12 aa]"
measure_name = "protein stability index"
reading = 0.717

[[record]]
residue_string = "EAVYELAKMSLA [MYG1 C-terminal 12 aa]"
measure_name = "protein stability index"
reading = 0.703

[[record]]
residue_string = "YNSDSGSYYTLM [YOR192C-C C-terminal 12 aa]"
measure_name = "protein stability index"
reading = 0.704

[[record]]
residue_string = "EKKKNPYWYYQW [GEP3 C-terminal 12 aa]"
measure_name = "protein stability index"
reading = 0.735

[[record]]
residue_string = "NQFSQPPSNVEF [SCD6 C-terminal 12 aa]"
measure_name = "protein stability index"
reading = 0.684

[[record]]
residue_string = "FGQDGCLYIYNQ [YHR045W C-terminal 12 aa]"
measure_name = "protein stability index"
reading = 0.713

[[record]]
residue_string = "LEFVRGGSRQFT [TIM44 C-terminal 12 aa]"
measure_name = "protein stability index"
reading = 0.689


----------
Quick reference: protein stability index of the listed items.
- System: Saccharomyces cerevisiae
- assay_protocol: protein stability index of tFT-peptide fusion (C-terminal peptide) (PSI (0-1 scale)); higher = more stable (slower turnover)
- condition_set: genetic background: cdc34-1; temperature: 37 C
measure_name: protein stability index

[[record]]
residue_string = "VCVAVCFVMCGG"
reading = 0.36

[[record]]
residue_string = "FVWVVRMLVFVP"
reading = 0.178

[[record]]
residue_string = "IWRGGSAVPMIC"
reading = 0.627


----------
- Test system: Saccharomyces cerevisiae
- assay_protocol: protein stability index of tFT-peptide fusion (C-terminal peptide) (PSI (0-1 scale)); higher = more stable (slower turnover)
- condition_set: genetic background: das1 deletion; temperature: 30 C
Outcome: true for protein stability index of at least 0.7; false for anything lower.

[[record]]
residue_string = "PFKAIFDAVTKE [ARO1 C-terminal 12 aa]"
label_class = "true"

[[record]]
residue_string = "NSKVMNIKALDH [MRPL10 C-terminal 12 aa]"
label_class = "false"

[[record]]
residue_string = "EFTDEWFKEHSS [STH1 C-terminal 12 aa]"
label_class = "true"

[[record]]
residue_string = "SFVKIQDAIKKT [MRPL9 C-terminal 12 aa]"
label_class = "true"

[[record]]
residue_string = "NYFIITCIGIIM [YPL261C C-terminal 12 aa]"
label_class = "false"

[[record]]
residue_string = "IHFGETSNYSFD [SMC5 C-terminal 12 aa]"
label_class = "true"

